- Experimental target: Solute carrier family 2, facilitated glucose transporter member 1 (Homo sapiens)
- Method description: ST_JUDE_LEISH: Cytotoxicity at 2uM final concentration against transgenic Leishmania Mexicana promastigotes LmGLUT1 that are glucose transport deficient and complemented with the human glucose transporter GLUT1. Activity is measured by DNA content using SYBR green in vitro
- Format: functional
Recorded endpoint: inhibition (%)
Provide the reading as a plain figure in %.

Example molecules with recorded inhibition:
| Molecule | Result unit | inhibition |
| --- | --- | --- |
| CCCCCCP(=O)(COc1ccc(CCN(CC(O)COc2cccc3[nH]c(C(N)=O)cc23)CC(O)COc2cccc3[nH]c(C(N)=O)cc23)cc1)OCCCC (stereo not drawn) | % | 8.37 |
| Cc1cc(NCCC(=O)NCCOc2ccccc2)nc(NCCc2ccccc2)n1 | % | 7.78 |
| O=C(Nc1ccc([N+](=O)[O-])cc1)Nc1cc(C(F)(F)F)ccc1F | % | 0.91 |
| CCOc1cc(CC)ccc1C1CCN(CCCCNC(=O)c2ccc(NC(=O)c3ccc(C#N)cc3)cc2)CC1 | % | 2.45 |
| c1ccc(-c2[nH]c3ccccc3c2CN2CCC(N3CCCCC3)CC2)nc1 | % | -2.72 |
| COc1cc(C=CC(=O)N2CCC(CCN3CCC(c4c[nH]c5ccccc45)CC3)CC2)cc(OC)c1 | % | 4.99 |

Now look at this entry.
Which inhibition is listed for O=C1Nc2cccc3c2C1(CCCCN1CCC(c2c(-c4ccccc4)[nH]c4ccccc24)CC1)CCC3 (stereo not drawn) ? 3.04

----------
- Experimental target: Solute carrier family 2, facilitated glucose transporter member 1 (Homo sapiens) (UniProt P11166)
- Sequence (P11166 whole entry): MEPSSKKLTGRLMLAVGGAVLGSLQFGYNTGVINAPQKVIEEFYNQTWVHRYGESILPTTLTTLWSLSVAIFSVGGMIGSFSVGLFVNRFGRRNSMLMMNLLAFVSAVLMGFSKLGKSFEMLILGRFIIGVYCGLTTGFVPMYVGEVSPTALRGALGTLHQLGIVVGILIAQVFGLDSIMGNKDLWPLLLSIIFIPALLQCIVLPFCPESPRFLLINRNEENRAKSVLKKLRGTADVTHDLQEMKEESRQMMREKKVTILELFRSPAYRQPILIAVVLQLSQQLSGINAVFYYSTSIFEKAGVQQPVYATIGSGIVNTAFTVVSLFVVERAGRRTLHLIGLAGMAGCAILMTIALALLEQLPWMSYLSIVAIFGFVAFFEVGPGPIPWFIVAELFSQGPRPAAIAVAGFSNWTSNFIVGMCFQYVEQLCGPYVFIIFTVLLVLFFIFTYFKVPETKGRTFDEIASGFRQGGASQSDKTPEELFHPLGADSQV
- Method description: ST_JUDE_LEISH: Cytotoxicity at 2uM final concentration against transgenic Leishmania Mexicana promastigotes LmGLUT1 that are glucose transport deficient and complemented with the human glucose transporter GLUT1. Activity is measured by DNA content using SYBR green in vitro
- Assay type: functional
inhibition values by entry
A number alone suffices; assume %.

// known answers, use as guide
| Molecule | Result unit | Assay value |
| --- | --- | --- |
| O=C(NC1CCCCC1)c1csc(C2CCCN(C(=O)c3ccc(O)c(-c4cccc(C(F)(F)F)c4)c3)C2)n1 (stereo not given) | % | 0.87 |
| CN(C)c1ccc(C=C2SC(=O)N=C2Nc2ccccc2)cc1 | % | 1.62 |
| COc1ccc2ccccc2c1CNCCCCCCNCc1c(OC)ccc2ccccc12 | % | 1.14 |

Which value of inhibition has been reported for O=C(Nc1cccc(-c2cccc(CN3CCCC3)c2)c1)c1ccc(Cl)cc1 in the records? 1.55

Using the record for COc1ccc2nccc([C@@H](O)CN3CCC(NC(=O)c4ccc(Oc5ccccc5)cc4)CC3)c2c1 , report its inhibition. 3.02

Fill in: inhibition of CCn1nc(C(=O)NC2CCOc3ccccc32)c2ccccc2c1=O (stereo not given) is ___ -1.12

# inhibition lookup, item CN(C)CCOc1cc(NC(=O)Nc2ccc(-c3ccccc3)cc2)ccc1I 12.5

Which inhibition value is on record for N#Cc1cccc(NC(=O)Nc2cccc(-c3ccc(-c4nc5cc(C(F)(F)F)ccc5[nH]4)cc3)c2)c1 ? 2.29

For the molecule Cc1ccc(OCCCON2C(=N)N=C(N)NC2(C)C)cc1C , what inhibition is on record? 2.79

Give the measured inhibition of O=C(Nc1ccncc1)c1cc(C(=O)Nc2ccncc2)cc([N+](=O)[O-])c1 . -0.17
